Assay Remarks: Single ascending oral dose pharmacokinetics (part 1, plasma and urine, fasted)
Type: in vivo, human
Run Parameters: human, plasma, oral, cohort/dose D/500 mg, single dose, geometric mean (%CV)
Readout Name: Cmax (ng/mL)
Answers are plain numbers, in ng/mL.

Input: Report Cmax for Cn1cnc(Cn2c(=O)[nH]/c(=N\c3cc4cn(C)nc4cc3Cl)n(Cc3cc(F)c(F)cc3F)c2=O)n1 [Ensitrelvir, ensitrelvir fumaric acid]
Output: 32600

* * *

Assay Remarks: Multiple-dose pharmacokinetics (part 2, cohorts F, G, H)
Assay type: in vivo, human
Run Parameters: human, plasma, oral, G/750/250 mg (Japanese), Day 5, fasted; geometric mean (%CV); read-out: AUC0-τ
Readout Name: AUC (µg·h/mL)
Give bare numbers, in µg·h/mL.

Input: Give the measured AUC for Cn1cnc(Cn2c(=O)[nH]/c(=N\c3cc4cn(C)nc4cc3Cl)n(Cc3cc(F)c(F)cc3F)c2=O)n1 [Ensitrelvir, ensitrelvir fumaric acid]
Output: 1340
